Measured values drawn from patent US7223793B2 for this set.

Parameter Neutral fat: see the listing below.
System: Sprague-Dawley rats
Test: Effect on hyperlipemia in rats fed high-cholesterol diet (Experimental Example 6)
Type: in vivo, rat
Conditions: rats on 1% cholesterol diet, 6 weeks; 0.02% lovastatin, 0.039% BN30063, 0.040% BN30064, 0.041% BN30067 in diet; average
Protocol: 50 of 4-week-old male white Sprague-Dawley rats (Bio Genomics Inc., Korea), each weighing about 90 to 110 g, were divided into five groups by a randomized block design. […] The animals were allowed free access to the specified diets and water for 6 weeks and the ingestion amounts were recorded daily. The rats were weighed every 7 days, and then the record was analyzed. […]

compound | Neutral fat, mg/dL
O=C(O)CC(NC(=O)CCc1ccc(O)c(O)c1)C(=O)O (stereo not shown) | 37.37
CC(C)CC(NC(=O)CCc1ccc(O)c(O)c1)C(=O)O (stereo not shown) | 73.07
COC(=O)C(CO)NC(=O)CCc1ccc(O)c(O)c1 (stereo not shown) | 52.31
CC[C@H](C)C(=O)O[C@H]1C[C@@H](C)C=C2C=C[C@H](C)[C@H](CC[C@@H]3C[C@@H](O)CC(=O)O3)[C@H]21 [Lovastatin, reference compound] | 83.85
